Ref: PubChem BioAssay (NCI)

Tested on: MDA-MB-231 breast
Assay: NCI tumour cell line growth inhibition, 48 h
Exercise: state measured TGI for each of the compounds provided.
Answers are plain numbers, in µM.

Previously resolved entries follow.
compound_string=CCCCCCCC/C(=C\C1=C(C)C(=O)C(OC)=C(OC)C1=O)C(=O)O test_readout=TGI endpoint_value=51.2
compound_string=COC(=O)[C@]12CC[C@@H](C)[C@H](C)[C@@H]1C1=CC[C@@H]3[C@@]4(C)C[C@@H](OC(C)=O)[C@H](O)[C@@](C)(CO)[C@@H]4[C@H](O)C[C@@]3(C)[C@]1(C)CC2 test_readout=TGI endpoint_value=23.4

Fill blank: measured TGI of the compound CCCCCCCCn1ccc2cc(NC(=O)Cn3cc(CN4CCN(CC)CC4)nn3)ccc21 is ____.
3.38
